// data source = ChEMBL document CHEMBL1128400

Kindly supply the reported pKi values for the records listed here.
# Assay Remarks: Binding affinity at bovine Benzodiazepine receptor by [3H]flunitrazepam displacement.
Give bare numbers, as −log10 of the molar value.

Compound Structure String	Quantity Kind	Measurement
O=c1oc2ccc(Cl)cc2c2nc(-c3ccccc3F)nn12	pKi	8.28
CCOC(=O)c1nc2c3ccccc3oc(=O)n2n1	pKi	6.92
O=c1oc2ccc(Cl)cc2c2nc(-c3ccco3)nn12	pKi	7.21
COc1ccc(-c2nc3c4cc(Cl)ccc4oc(=O)n3n2)cc1	pKi	7.14
O=c1oc2ccc(Cl)cc2c2nc(-c3ccsc3)nn12	pKi	6.68

Quick one: give me pKi for each item below, same order please.
1. O=c1oc2ccc(Cl)cc2c2nc(-c3ccccc3)nn12
2. O=c1oc2ccccc2c2nc(-c3ccco3)nn12
3. CCOC(=O)c1nc2c3cc(Cl)ccc3oc(=O)n2n1
4. Cc1ccc2oc(=O)n3nc(-c4ccccc4F)nc3c2c1
5. O=c1oc2ccc(Cl)cc2c2nc(-c3cccc(F)c3F)nn12
6. O=c1oc2ccccc2c2nc(-c3cccs3)nn12

Result:
[6.25, 7.55, 6.90, 7.35, 7.93, 7.49]

Look at each compound and report its pKi.
1. COc1ccc(-c2nc3c4ccccc4oc(=O)n3n2)cc1
2. O=c1oc2ccccc2c2nc(-c3ccccc3F)nn12
3. COc1ccc2oc(=O)n3nc(-c4ccccc4F)nc3c2c1
4. O=c1oc2ccccc2c2nc(-c3ccccc3)nn12
5. O=c1oc2ccc(Cl)cc2c2nc(-c3ccoc3)nn12
6. O=c1oc2ccc(Cl)cc2c2nc(-c3c(F)cccc3F)nn12
7. O=c1oc2ccc(Cl)cc2c2nc(-c3cccs3)nn12

Result:
[6.52, 7.82, 7.36, 6.88, 6.98, 7.37, 7.00]
